assay.overview: Cytotoxicity Determination
Type: cell-based
experimental.setup: human, HEp-2 cells, without addition of virus, CCK-8 readout, bins (Table 4: greater than 100 μM; Table 5: equal to or less than 100 μM and greater than 10 μM), read-out: 50% cytotoxicity concentration (CC50)
parameter: CC50 at 5 days

• COc1ccc(C(=O)NCC(=O)c2ccc(OC)c(-c3ccc4cnn(C)c4c3)n2)cc1OC = 10 to 100 µM
• COc1cc(C(=O)NCC(=O)c2cc(C)c(OC)c(-c3csc4c(F)cccc34)n2)ccc1OCCO = 10 to 100 µM
• COc1cc(C(=O)NCC(=O)c2ccc(OC)c(-c3csc4c(F)cccc34)n2)ccc1OCCF = > 100 µM
• COc1ccc(C(=O)NCC(=O)c2ccc(OC)c(-c3ccc(N4CCCCC4)cc3)n2)cc1OC = > 100 µM
• COc1ccc(C(=O)CNC(=O)c2ccnc(C)c2)nc1-c1ccc(F)c(Cl)c1 = > 100 µM

The record that follows has no CC50 at 5 days shown yet.
// COc1cc(C(=O)NCC(=O)c2cccc(-c3csc4c(F)cccc34)n2)ccc1OC1CCOCC1 : CC50 at 5 days value = > 100 µM

---

The entries below come with measured CC50 at 5 days values attached.
assay.overview: Cytotoxicity Determination
Assay type: cell-based
experimental.setup: human, HEp-2 cells, without addition of virus, CCK-8 readout, bins (Table 4: greater than 100 μM; Table 5: equal to or less than 100 μM and greater than 10 μM), read-out: 50% cytotoxicity concentration (CC50)

• COc1cc(C(=O)NCC(=O)c2ccc(OC)c(-c3ccc(F)cc3F)n2)ccc1OCCO = > 100 µM
• CCc1cc(C(=O)CNC(=O)c2ccc(OCCO)c(OC)c2)nc(-c2c[nH]c3c(F)cccc23)c1 = > 100 µM

# input for lookup
Lookup result for COCC/C(=N\NC(=O)CNC(=O)c1ccc(OC)c(OC)c1)c1csc2ccccc12 ; measured CC50 at 5 days: > 100 µM
